Exercise: state measured pKd for each of the binders provided.
- TARGET OR SYSTEM: DLG4_3, P78352
- Sequence (P78352 306-403): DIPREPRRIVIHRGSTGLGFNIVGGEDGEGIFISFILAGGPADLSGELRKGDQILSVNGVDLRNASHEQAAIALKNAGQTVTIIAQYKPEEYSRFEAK
- TEST PROTOCOL: holdup assay
- Parameters: key: below the threshold = too weak to quantify, mostly under pKd 3.1 to 4
- RUN CONDITIONS: plain residues with an end cap or a label only (N-terminal biotin on a linker: ado-ado)
Give the value as a plain number.

**Query** Bench note: what pKd did NISYRRESAI [KCNJ4, P48050] show?
**Result** 4.12

**Query** Bench note: what pKd did VLYPREGTEV [FOXI1, Q12951] show?
**Result** 3.57

**Query** Bench note: what pKd did ARGPPRESEV [FAM110D, Q8TAY7] show?
**Result** 4.42

**Query** Bench note: what pKd did PPGKHLVTEV [KCNA7, Q96RP8] show?
**Result** 4.16

**Query** Bench note: what pKd did RQKEVRESKC [SCN8A, Q9UQD0] show?
**Result** 4.6

**Query** Bench note: what pKd did STKRKLASAV [NCF1, P14598] show?
**Result** 3.67

**Query** Bench note: what pKd did NTLNRKTTPV [CACNG8, Q8WXS5] show?
**Result** 4.89

**Query** Bench note: what pKd did TGLWKHETTV [ADGRA3, Q8IWK6] show?
**Result** 4.94

**Query** Bench note: what pKd did VKRNSKETVV [MARCHF3, Q86UD3] show?
**Result** 4.94

**Query** Bench note: what pKd did NTANRRTTPV [CACNG2, Q9Y698] show?
**Result** 4.69

**Query** Bench note: what pKd did DTKNYKQTSV [CRIPT, Q9P021] show?
**Result** 5.39

**Query** Bench note: what pKd did KSRVAFFEEL [NF2, P35240] show?
**Result** 3.52

**Query** Bench note: what pKd did ILRKSTTTTV [PRR16, Q569H4] show?
**Result** 4.12
